Test system: PA-1
EXPERIMENT: Primary qHTS to identify gynecologic anti-cancer compounds using libraries of approved drugs and bioactive compounds (AID 1345084); also: % is scaled to controls: 0 for no effect and ±100 for the full control effect; nearly all actives have a fitted effect of over 55% in size
EXPERIMENTAL_PARAMETERS: Gynecologic cancer cell panel viability, ATPlite luminescence, 48 h; series mostly up to 57.5 µM
Inconclusive results are not listed. Calls of active or inactive are those of the source. Calls follow the shape of the dose curve; as a rule, active = well fitted cell-killing curve with a large enough effect; inconclusive = small, poorly fitted or top-dose-only effect, or effect the other way; inactive = flat fitted curve, though single readings scatter.

{"columns": ["COMPOUND", "activity change, negative = cytotoxicity"],
 "data": [
  ["C/C=C/C=C/C=C/C(=O)OC1C=C2C(O)OC(=O)[C@]2(O)[C@@]2(C)CCCC(C)(C)[C@H]12 (stereo partly specified)", "inactive"],
  ["C[C@@H]1O[C@@H](OC(=O)Cc2ccccc2)[C@H](O)[C@H](O)[C@H]1O", "inactive"],
  ["CC1(C)C[C@H]2C=C(C=O)[C@]3(C(=O)O)C[C@]3(C)[C@H]2C1", "inactive"],
  ["NC(Cc1c[nH]c2ccc(O)cc12)C(=O)O (stereo unspecified)", "inactive"],
  ["COc1ccc(CCC(=O)O)c(O[C@@H]2O[C@H](CO)[C@@H](O)[C@H](O)[C@H]2O)c1", "inactive"],
  ["C[C@@H]1O[C@@H](O[C@H]2[C@H](O)[C@@H](O)[C@H](OC(=O)[C@]34CCC(C)(C)C[C@H]3C3=CCC5[C@@]6(C)CC[C@H](O[C@@H]7O[C@H](C(=O)O)[C@@H](O)[C@H](O)[C@H]7O)C(C)(C)C6CC[C@@]5(C)[C@]3(C)CC4)O[C@@H]2CO)[C@H](O)[C@H](O)[C@H]1O (stereo partly specified)", "-21.3% [at 11.6 µM] (inactive)"],
  ["C=Cc1cc2oc(-c3ccc(O)c(F)c3)nc2cc1O", "inactive"],
  ["COC(=O)C1C(O)CCC2CN3CCc4c([nH]c5ccccc45)C3CC21 (stereo unspecified)", "inactive"],
  ["COC(=O)C1=COC(O[C@@H]2O[C@H](CO)[C@@H](O)[C@H](O)[C@H]2O)/C(=C\\COC(=O)/C=C/c2ccccc2)C1CC(=O)OCCc1ccc(O)cc1 (stereo partly specified)", "inactive"],
  ["COc1c2cc(c(O[C@@H]3O[C@H](CO)[C@@H](O)[C@H](O)[C@H]3O)c1OC)CCCCC(O)CCc1ccc(O)c-2c1 (stereo partly specified)", "inactive"],
  ["C[C@@H]1O[C@@H](OC2C(CO)OC(OCC3OC(OC(=O)[C@]45CCC(C)(C)CC4C4=CCC6[C@@]7(C)CC[C@@H](O)[C@](C)(C(=O)O)C7CC[C@@]6(C)[C@]4(C)CC5)C(O)C(O)C3O)C(O)C2O)[C@H](O)[C@H](O)[C@H]1O (stereo partly specified)", "29.2% [at 11.6 µM] (inactive)"],
  ["On1ncc(C2CCNCC2)c1-c1cccc(-c2ccccc2)c1", "inactive"],
  ["O=C(Cc1ccc(Cl)cc1)Nc1cnccc1C(=O)O", "inactive"],
  ["C/C(=C\\C(=O)C(C)C1CCC2C3=C(CCC21C)C1(C)CCC(=O)C(C)(C)C1(O)CC3)C(C)(C)O (stereo unspecified)", "inactive"],
  ["CO[C@H]1c2cc(C(C)C)c(O)c(O)c2[C@@]23CCCC(C)(C)C2[C@@H]1OC3=O (stereo partly specified)", "inactive"],
  ["C[C@H]1CC[C@H]2[C@@H](C=C[C@@](C)(O)[C@]2(C)C(=O)CCO)C1", "inactive"]
]}
